System: murine red blood cells
METHOD: Red blood cell hemolysis
Type: cell-based, mouse
CONDITION: red cells of murine
Non-standard residues stand in square brackets, D forms with d. Residues, ends and D or L forms follow the SMILES beside them. NMeL = CN[C@@H](CC(C)C)C(=O)O
MEASURED ENDPOINT: Hemolysis HD50 (µg/mL)
Write the number in µg/mL without appending the unit.

The reported Hemolysis HD50 of the compound CC(C)C[C@@H](N)C(=O)N[C@@H](Cc1c[nH]c2ccccc12)C(=O)N[C@H](CCCNC(=N)N)C(=O)N[C@@H](CCCNC(=N)N)C(=O)N[C@H](CCCCN)C(=O)N[C@@H](Cc1c[nH]c2ccccc12)C(=O)N[C@H](CC(C)C)C(=O)N[C@@H](Cc1c[nH]c2ccccc12)C(N)=O [SEQ ID NO:137, H-LWRRKWLW-NH2] (H-[dL]W[dR]R[dK]W[dL]W-NH2) was 100

The reported Hemolysis HD50 of the compound CC(=O)N[C@H](CC(C)C)C(=O)N[C@@H](Cc1c[nH]c2ccccc12)C(=O)N[C@H](CCCNC(=N)N)C(=O)N[C@@H](CCCNC(=N)N)C(=O)N[C@H](CCCCN)C(=O)N[C@@H](Cc1c[nH]c2ccccc12)C(=O)N[C@H](CC(C)C)C(=O)N[C@@H](Cc1c[nH]c2ccccc12)C(N)=O [SEQ ID NO:138, Ac-LWRRKWLW-NH2] (Ac-[dL]W[dR]R[dK]W[dL]W-NH2) was 100

The reported Hemolysis HD50 of the compound CC(=O)N[C@H](CCCNC(=N)N)C(=O)N[C@@H](CCCNC(=N)N)C(=O)N[C@H](CCCCN)C(=O)N[C@@H](Cc1c[nH]c2ccccc12)C(=O)N[C@H](CC(C)C)C(=O)N[C@@H](Cc1c[nH]c2ccccc12)C(=O)N[C@H](CC(C)C)C(=O)N[C@@H](Cc1c[nH]c2ccccc12)C(N)=O [SEQ ID NO:136, Ac-RRKWLWLW-NH2] (Ac-[dR]R[dK]W[dL]W[dL]W-NH2) was 100

The reported Hemolysis HD50 of the compound CC(C)C[C@H]1NC(=O)[C@H](Cc2c[nH]c3ccccc23)NC(=O)[C@@H](CCCNC(=N)N)NC(=O)[C@H](CCCNC(=N)N)NC(=O)[C@@H](CCCNC(=N)N)NC(=O)[C@H](Cc2c[nH]c3ccccc23)NC(=O)[C@@H](CC(C)C)NC(=O)[C@H](Cc2c[nH]c3ccccc23)NC1=O [SEQ ID NO:20, RRRWLWLW] (cyclo([dR]R[dR]W[dL]W[dL]W)) was 35

The reported Hemolysis HD50 of the compound CC(C)C[C@@H]1NC(=O)[C@@H](Cc2c[nH]c3ccccc23)NC(=O)[C@H](CCCNC(=N)N)NC(=O)[C@@H](CCCNC(=N)N)NC(=O)[C@H](CCCNC(=N)N)NC(=O)[C@@H](Cc2c[nH]c3ccccc23)NC(=O)[C@H](CC(C)C)NC(=O)[C@@H](Cc2c[nH]c3ccccc23)NC1=O [SEQ ID NO:133, [RRRWLWLW]] (cyclo(R[dR]R[dW]L[dW]L[dW])) was 35

The reported Hemolysis HD50 of the compound CC(C)C[C@H]1NC(=O)[C@H](Cc2c[nH]c3ccccc23)NC(=O)[C@@H](CCCNC(=N)N)NC(=O)[C@H](CCCNC(=N)N)NC(=O)[C@@H](CC(C)C)NC(=O)[C@H](Cc2c[nH]c3ccccc23)NC1=O [SEQ ID NO:115, [RRWLWL]] (cyclo(R[dR]W[dL]W[dL])) was 90

The reported Hemolysis HD50 of the compound CC(C)C[C@H]1NC(=O)[C@H](CCCNC(=N)N)NC(=O)[C@@H](CCCNC(=N)N)NC(=O)[C@H](Cc2c[nH]c3ccccc23)NC(=O)[C@@H](CC(C)C)NC(=O)[C@H](Cc2c[nH]c3ccccc23)NC1=O [SEQ ID NO:29, cyclo-(D-Arg-Arg-D-Leu-Trp-D-Leu-Trp)] (cyclo(R[dL]W[dL]W[dR])) was 90

The reported Hemolysis HD50 of the compound CC(C)C[C@H]1C(=O)N[C@H](Cc2c[nH]c3ccccc23)C(=O)N(C)[C@@H](CC(C)C)C(=O)N[C@H](Cc2c[nH]c3ccccc23)C(=O)N[C@@H](CCCNC(=N)N)C(=O)N[C@H](CCCNC(=N)N)C(=O)N[C@@H](CCCCN)C(=O)N[C@H](Cc2c[nH]c3ccccc23)C(=O)N1C [SEQ ID NO:139, c[RRKW^MeLW^MeLW]] (cyclo(R[dR]K[dW][NMeL][dW][NMeL][dW])) was 100

The reported Hemolysis HD50 of the compound CC(C)C[C@H]1NC(=O)[C@H](CCCCN)NC(=O)[C@@H](CC(C)C)NC(=O)[C@H](Cc2c[nH]c3ccccc23)NC(=O)[C@@H](CC(C)C)NC(=O)[C@H](Cc2c[nH]c3ccccc23)NC(=O)[C@@H](CC(C)C)NC(=O)[C@H](Cc2c[nH]c3ccccc23)NC1=O [SEQ ID NO:3, cyclo[-Lys-D-Leu-(Trp-D-Leu)3]] (cyclo(K[dL]W[dL]W[dL]W[dL])) was 20

The reported Hemolysis HD50 of the compound CC(=O)N[C@H](CCCCN)C(=O)N[C@@H](CCCCN)C(=O)N[C@H](CCCCN)C(=O)N[C@@H](Cc1c[nH]c2ccccc12)C(=O)N[C@H](CC(C)C)C(=O)N[C@@H](Cc1c[nH]c2ccccc12)C(=O)N[C@H](CC(C)C)C(=O)N[C@H](Cc1c[nH]c2ccccc12)C(N)=O [SEQ ID NO:25, Ac-KKKWLWLW-CONH2] (Ac-[dK]K[dK]W[dL]W[dL][dW]-NH2) was 100

The reported Hemolysis HD50 of the compound CC(C)C[C@H]1NC(=O)[C@H](Cc2c[nH]c3ccccc23)NC(=O)[C@@H](CCCCN)NC(=O)[C@H](CCCNC(=N)N)NC(=O)[C@@H](CCCNC(=N)N)NC(=O)[C@H](Cc2c[nH]c3ccccc23)NC(=O)[C@@H](CC(C)C)NC(=O)[C@H](CO)NC1=O [SEQ ID NO:112, [RRKWLSLW]] (cyclo([dR]R[dK]W[dL]S[dL]W)) was 100

Sourced from patent US20050107289A1
